- assay_procedure: Cynomolgus monkey tolerability, kidney and liver function markers (Example 34)
- condition_parameters: cynomolgus monkeys, 35 mg/kg subcutaneously, day 44

substance	ALB [g/dL]
1198728 (TATTAGAGTATGTGGC; modified gapmer, further chemistry not given here) [compound 1198728]	4.1
1197270 (TTAAAGTGTATGTCAG; cEt gapmer with 2'-OMe nucleoside, phosphorothioate, further chemistry not given here) [compound 1197270]	3.7
1198623 (CTAAGTAAGGTTTCCC; modified gapmer, further chemistry not given here) [compound 1198623]	4.2

---

Measured IC50 of individual entries
- System: Yap1 mRNA
- assay_procedure: Dose-dependent inhibition of human Yap1 in SNU-449 cells (Example 9, RTS36584)
- Type: cell-based
- condition_parameters: free uptake, linear regression on a log/linear plot
- Procedure: Modified oligonucleotides described in the studies above were tested at various doses in SNU-449 cells. […] After approximately 48 hours, Yap1 mRNA levels were measured as previously described using the Human Yap1 primer-probe set RTS36584. Yap1 mRNA levels were normalized to total RNA content, as measured by RIBOGREEN®. […] IC50s were calculated using a linear regression on a log/linear plot of the data in excel.
Strand notation (5' to 3'): a small letter for the sugar, then the base; units joined by * are phosphorothioate-linked, units joined directly phosphodiester-linked; [ ] holds rarer units or linkages, { } end groups; capitals alone tell only the bases. e = 2'-O-(2-methoxyethyl) (MOE); k = constrained ethyl (cEt); [5mC] = 5-methylcytosine; d = 2'-deoxy (DNA)

substance	IC50
1198440 (AAGTGTATGTCAGAAG; cEt, 2'-MOE, 5-methylcytosine, phosphorothioate modifications, further chemistry not given here) [compound 1198440]	< 30 nM
1197223 (kT*kA*kA*dG*dT*dA*dA*dG*dG*dT*dT*dT*d[5mC]*k[5mC]*k[5mC]*kA; antisense) [compound 1197223]	200 nM
1198380 (kA*dG*dA*dG*dT*dA*dT*dG*dT*dG*dG*k[5mC]*eA*kA*eT*kA; antisense) [compound 1198380]	100 nM
1198422 (k[5mC]*dT*dT*dA*dT*dA*dT*dG*dG*dT*dT*kT*eT*kG*eT*kG) [compound 1198422]	200 nM
1095481 (kT*kG*dA*dG*dG*dT*dA*dT*dA*dA*d[5mC]*dT*kG*eG*kG*e[5mC]) [compound 1095481]	100 nM
1197217 (kT*kT*kA*dA*dA*dG*dT*dG*dT*dA*dT*dG*dT*k[5mC]*kA*kG) [compound 1197217]	100 nM
1198510 (k[5mC]*kT*d[5mC]*dT*dT*dA*dT*dA*dT*dG*dG*eT*kT*eT*kT*eG; antisense) [compound 1198510]	100 nM
1198202 (kG*kA*dA*dA*dT*dT*dG*dT*d[5mC]*dT*d[5mC]*eA*eT*eG*k[5mC]*k[5mC]; antisense) [compound 1198202]	100 nM
1198638 (kA*kG*dA*dG*dT*dA*dT*dG*dT*dG*dG*d[5mC]*kA*eA*kT*eA; antisense) [compound 1198638]	100 nM
1198424 (k[5mC]*dT*d[5mC]*dT*dT*dA*dT*dA*dT*dG*dG*kT*eT*kT*eT*kG; antisense) [compound 1198424]	100 nM
